System: SN12C
Assay: NCI tumour cell line growth inhibition, 48 h
Active and inactive are the calls of the source. Rule as the data show it: active = GI50 up to about 1.1 µM and inactive = higher.
Permitted responses: True = active, False = inactive

{"columns": ["compound", "group"],
 "data": [
  ["COc1cc(Cn2c(=S)ss/c2=N\\C(=S)N(C)C)cc(OC)c1OC", "False"]
]}

Request: Could you please tell me the result logged for CCCCn1c(C)c(C(=O)OCC)s/c1=N/Nc1nc2ccccc2nc1-c1ccccc1 in this assay?
Response: False

Request: Param item: OC(CCN1CCN(CCOC(c2ccc(F)cc2)c2ccc(F)cc2)CC1)c1ccc(Br)cc1 (configuration not stated)
Response: False

---

Test system: IGROV-1
Test: NCI tumour cell line growth inhibition, 48 h
Calls of active or inactive are those of the source. Rule as the data show it: active = GI50 up to about 1.1 µM and inactive = higher.
Items are presented alongside their recorded GI50.

# example entries with known answers
{"columns": ["molecule", "measured-quantity", "data-value"],
 "data": [
  ["N#CC(/C(=N/NC(=O)C(=O)NN)C(=O)NC12CC3CC(CC(C3)C1)C2)c1ccccc1 (configuration not stated)", "GI50", "> 100 µM (inactive)"],
  ["CN(C)CCNc1nc(-c2ccc3ccccc3c2)nc2[nH]cnc12", "GI50", "2.31 µM (inactive)"],
  ["C/C(=N\\NC(=S)NC(C)C)c1nc2cccnc2[nH]1", "GI50", "19.8 µM (inactive)"],
  ["OC(CC1CCCCN1)c1ccc2c(c1)oc1ccccc12 (configuration not stated)", "GI50", "55.6 µM (inactive)"],
  ["Cc1cc(Cl)ccc1OCC(=O)Oc1c(Cl)c(Cl)c(Cl)c(Cl)c1Cl", "GI50", "17.4 µM (inactive)"]
]}

Request: So what's the measured GI50 for this one? O=c1[nH]nc(-c2ccc3ccccc3c2)[nH]1
Response: 70.3 µM (inactive)

Request: Param item: O=c1[nH]c2cc(-c3ccccc3)nc-2nn1-c1c(Cl)cc(Cl)cc1Cl
Response: 38.5 µM (inactive)

---

Items are presented alongside their recorded GI50.
Test system: SNB-75
Experiment: NCI tumour cell line growth inhibition, 48 h
Calls of active or inactive are those of the source. Cut-off read from the data, not from the text of the source: active = GI50 up to about 1.1 µM and inactive = higher.

{"columns": ["molecule", "GI50"],
 "data": [
  ["CCOC1c2nc3ccccc3nc2-c2ccccc2N1C(C)=O (centres undefined)", "46.2 µM (inactive)"],
  ["O=C1C=CC(=O)c2nc3c(cc21)CCC3", "67.5 µM (inactive)"],
  ["Cc1cc2c(SCc3ccccc3Cl)nc(N)nc2nc1C", "> 100 µM (inactive)"]
]}

Lab note: next molecule to report on.
Request: So what's the measured GI50 for this one? CCC1c2cc3n(c(=O)c2COC1O)Cc1c-3nc2ccccc2c1Cl (centres undefined)
Response: 20.5 µM (inactive)

---

Tested on: HCC 2998
Experiment: NCI tumour cell line growth inhibition, 48 h
Active and inactive are the calls of the source. No stated cut-off is given here; in the data, active = GI50 up to about 1.1 µM and inactive = higher.
measured-quantity: GI50

{"columns": ["molecule", "measured-quantity", "data-value"],
 "data": [
  ["O[C@@H]1C[C@@H]2N[C@@](O)(C[C@@H]2O)[C@H]1O", "GI50", "> 100 µM (inactive)"],
  ["N#C/N=C(/NCCc1c[nH]c2ccccc12)Oc1ccccc1", "GI50", "44 µM (inactive)"],
  ["Cc1ccc([Se][Se]c2ccc(C)cc2)cc1", "GI50", "53.8 µM (inactive)"],
  ["C=CCn1c(S)nnc1C12CC3CC(CC(C3)C1)C2", "GI50", "76.4 µM (inactive)"],
  ["NNC(=O)c1cc([N+](=O)[O-])ccc1NC(=O)C12CC3CC(CC(C3)C1)C2", "GI50", "10.5 µM (inactive)"]
]}

Request: So what's the measured GI50 for this one? O=C(Cc1nc2ccccc2o1)C(=O)Nc1cccc(C(F)(F)F)c1
Response: > 100 µM (inactive)

Request: Param item: O=S(=O)(O)c1cc(/N=[N+](\[O-])c2ccc(/N=N/c3ccccc3)cc2S(=O)(=O)O)ccc1/C=C/c1ccc(/N=[N+](\[O-])c2ccc(/N=N/c3ccccc3)cc2S(=O)(=O)O)cc1S(=O)(=O)O
Response: > 100 µM (inactive)

Request: Param item: O=c1[nH]c2cc(-c3ccccc3)nc-2nn1-c1c(Cl)cc(Cl)cc1Cl
Response: 4.03 µM (inactive)

Request: Param item: Cn1c(CO)ccc1-c1ccc(-c2ccc[se]2)[se]1
Response: 0.798 µM (active)

Request: Param item: O=C1c2ccccc2C(=O)N1c1ccc(OCCN2CCCCC2)cc1
Response: > 100 µM (inactive)

---

The listing below reports GI50 for compounds tested on HCT-15.

# example entries with known answers
{"columns": ["compound", "GI50"],
 "data": [
  ["COC(O)C(=O)c1c2c(cc3c1CCC3)CCC2 (stereo not drawn)", "> 100 µM"],
  ["Cc1cc(C)c(C2CC(O)C(CO)O2)cc1C (stereo not drawn)", "> 100 µM"]
]}

Lab note: next compound to report on.
Request: So what's the measured GI50 for this one? CN(C(=O)C12C3(C(=O)O)C4C5(C(=O)O)C3C1(C(=O)O)C5C42C(=O)O)C(C)(C)C (stereo not drawn)
Response: > 100 µM

---

Tested on: 786-0
Assay: NCI tumour cell line growth inhibition, 48 h
Active and inactive are the calls of the source. Rule as the data show it: active = GI50 up to about 1.1 µM and inactive = higher.
Permitted responses: T for active, F for inactive

Solved cases (4 shown):
{"columns": ["compound", "group"],
 "data": [
  ["CN(C(=O)C12C3(C(=O)O)C4C5(C(=O)O)C3C1(C(=O)O)C5C42C(=O)O)C(C)(C)C (centres undefined)", "F"],
  ["CCCC(=O)NC1CCc2cc(OC)c(OC)c(OC)c2-c2ccc(OC)c(=O)cc21 (centres undefined)", "T"],
  ["N/N=C1\\C(OC(=O)Nc2ccccc2)=Nc2ccccc21", "F"],
  ["N=C(N)N/N=C(/CC1OC(=O)c2ccccc21)c1ccc2ccccc2c1 (centres undefined)", "F"]
]}

Pending compound:
Request: Could you please tell me the result logged for O[C@@H]1C[C@@H]2N[C@@](O)(C[C@@H]2O)[C@H]1O in this assay?
Response: F

---

Items are presented alongside their recorded GI50.
Tested on: OVCAR-5
Experiment: NCI tumour cell line growth inhibition, 48 h
Active and inactive are the calls of the source. No stated cut-off is given here; in the data, active = GI50 up to about 1.1 µM and inactive = higher.

{"columns": ["compound", "measured-quantity", "data-value"],
 "data": [
  ["O=C(O)/C=C\\C(=O)Nc1ccccn1", "GI50", "> 100 µM (inactive)"],
  ["Cc1ccc2c(c1)nc(N)n[n+]2[O-]", "GI50", "> 100 µM (inactive)"],
  ["NC(Cc1ccccc1)P(=O)(O)O (stereo not drawn)", "GI50", "> 100 µM (inactive)"],
  ["COc1ccc(C2SCC(=O)N2NC(=O)c2ccncc2)cc1F (stereo not drawn)", "GI50", "> 100 µM (inactive)"]
]}

Request: So what's the measured GI50 for this one? O=CCCCCCOCc1ccccc1
Response: > 100 µM (inactive)

Request: Param item: N#CC(/C(=N/NC(=O)C(=O)NN)C(=O)NC12CC3CC(CC(C3)C1)C2)c1ccccc1 (stereo not drawn)
Response: > 100 µM (inactive)

Request: Param item: CCN(CC)CCNC(=O)C1COc2ccc(-c3cc(=O)c4ccccc4o3)cc2O1 (stereo not drawn)
Response: 22.3 µM (inactive)

Request: Param item: CCCCc1c(C(=O)OC(C)(C)C)cc(C#Cc2cc(C(=O)OC(C)(C)C)c(CCCC)c(C(=O)OC(C)(C)C)c2)cc1C(=O)OC(C)(C)C
Response: > 100 µM (inactive)

Request: Param item: CCCCn1c(C)c(C(=O)OCC)s/c1=N/Nc1nc2ccccc2nc1-c1ccccc1
Response: > 100 µM (inactive)

Request: Param item: CCO[C@]12CCC[C@H]1[C@@H]1C(=O)c3ccccc3C(=O)C1=C(C)O2
Response: > 100 µM (inactive)

Request: Param item: COc1ccc(NC(C)=O)c(C(O)CCNC(C)=O)c1 (stereo not drawn)
Response: > 100 µM (inactive)

Request: Param item: O=[N+]([O-])/C=C/c1ccc2ccccc2c1
Response: 3.52 µM (inactive)

Request: Param item: Cc1cc(C)n(-c2nc(C)c(CCO)c(=O)[nH]2)n1
Response: > 100 µM (inactive)

---

Tested on: NCI-H23
Test: NCI tumour cell line growth inhibition, 48 h
The source made the active and inactive calls. Rule as the data show it: active = GI50 up to about 1.1 µM and inactive = higher.
measured-quantity: GI50

{"columns": ["molecule", "GI50"],
 "data": [
  ["c1ccc2c(Cc3c[nH]c4ccccc34)c[nH]c2c1 [ARUNDINE]", "13.3 µM (inactive)"],
  ["NCCCCCNOCCCN", "> 100 µM (inactive)"],
  ["Oc1cc2cc(-c3ccccc3)[nH]c2c2ccccc12", "15 µM (inactive)"]
]}

Request: So what's the measured GI50 for this one? Cc1ccc(C2(N3CCOCC3)OC(C)(C)c3cccc4cccc2c34)cc1 (centres undefined)
Response: 17.7 µM (inactive)
